- study_system: T1, human soluble urokinase plasminogen activator receptor (hsuPAR) (human, UniProt Q03405 23-303, limits assumed)
- T1 construct: also called human suPAR; rhuPAR-His
- T1 sequence (Q03405 23-303 limits assumed): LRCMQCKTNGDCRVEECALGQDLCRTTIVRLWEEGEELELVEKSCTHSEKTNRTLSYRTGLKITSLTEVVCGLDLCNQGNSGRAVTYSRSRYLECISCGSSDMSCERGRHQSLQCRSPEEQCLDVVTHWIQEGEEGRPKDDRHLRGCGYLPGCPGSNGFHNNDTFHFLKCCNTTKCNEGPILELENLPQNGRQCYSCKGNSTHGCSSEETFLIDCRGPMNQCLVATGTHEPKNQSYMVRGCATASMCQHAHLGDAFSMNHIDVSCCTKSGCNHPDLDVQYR
- method_description: BLI (Octet) off-rate screen of scFv
measurement_type: koff (s⁻¹)
One number for each entry, in s⁻¹.

suPAR_DB01_H06 (scFv, V domains shown, Screened as scFv) VH: QVQLVQSGAEVKKPGASVKVSCKASGFNIKDYYMHWVRQAPGQGLEWMGWIDPENGNTIYDQKFQGRVTMTRDTSTSTVYMELSSLRSEDTAVYYCARGYDVDWFVYWGQGTLVTVSS VL: DIQMTQSPSSLSASVGDRVTITCSARQSISYMYWYQQKPGKAPKLLIYRTSNLASGVPSRFSGSGSGTDFTLTISSLQPEDFATYYCQQYHSYPPTFGGGTKVEIK; 0.0052

Give koff for each of the items listed below.
1. suPAR_DB01_H07 (scFv, V domains shown, Screened as scFv) VH: QVQLVQSGAEVKKPGASVKVSCKASGDTFSNYYMHWVRQAPGQGLEWMGWIDHENGSTIYAQKFQGRVTMTRDTSTSTVYMELSSLRSEDTAVYYCARGYDVDWFVYWGQGTLVTVSS VL: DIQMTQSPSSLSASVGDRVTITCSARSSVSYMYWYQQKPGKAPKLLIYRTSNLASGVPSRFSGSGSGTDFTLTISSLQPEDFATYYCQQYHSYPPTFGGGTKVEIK
2. suPAR_DB01_F05 (scFv, V domains shown, Screened as scFv) VH: QVQLVQSGAEVKKPGASVKVSCKASGYTFSNYYMHWVRQAPGQGLEWMGWIDHEGGSTIYDQKFQGRVTMTRDTSTSTVYMELSSLRSEDTAVYYCARGYDVDWFVYWGQGTLVTVSS VL: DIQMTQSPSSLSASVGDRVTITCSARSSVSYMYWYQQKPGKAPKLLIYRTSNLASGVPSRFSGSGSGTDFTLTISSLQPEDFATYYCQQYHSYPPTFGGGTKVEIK

Response:
[0.00138, 0.00175]
